System: SN12C renal
Test: NCI tumour cell line growth inhibition, 48 h
measured property: TGI

[
  {
    "compound": "O=C1c2cc3c(cc2CC12Cc1cc4c(cc1C2)CCC4)CCC3",
    "tested on": "SN12C renal",
    "result": "> 100 µM"
  },
  {
    "compound": "O=C(OCc1ccccc1CN1CCOCC1)c1ccc(Br)cc1",
    "tested on": "SN12C renal",
    "result": "> 100 µM"
  },
  {
    "compound": "COc1ccc(S(=O)(=O)N/N=C/C(=O)O)cc1",
    "tested on": "SN12C renal",
    "result": "1140 µM"
  },
  {
    "compound": "Cc1cc(N(CCC#N)S(=O)(=O)c2ccccc2)ccc1C=O",
    "tested on": "SN12C renal",
    "result": "> 100 µM"
  },
  {
    "compound": "O=C1c2cccnc2C(=O)c2c1c(C(=O)OCCCN1CCOCC1)c1ccccn21",
    "tested on": "SN12C renal",
    "result": "1.82 µM"
  },
  {
    "compound": "COc1cccc(-c2nn(-c3ccccc3)cc2-c2ccnc(NCCNC(=O)Nc3ccc(Cl)c(Cl)c3)c2)c1",
    "tested on": "SN12C renal",
    "result": "5.96 µM"
  },
  {
    "compound": "O=C(N[C@@H]1CCCc2ccccc21)[C@H](CCC(=O)N1CCN(C2CCCCC2)CC1)N1C(=O)[C@@H](N2C(=O)OC[C@@H]2c2ccccc2)[C@H]1/C=C/c1ccccc1",
    "tested on": "SN12C renal",
    "result": "27.3 µM"
  },
  {
    "compound": "CC(=O)N[C@@H](Cc1ccc(O)cn1)C(=O)NCc1ccc2c(c1)OCO2",
    "tested on": "SN12C renal",
    "result": "> 100 µM"
  },
  {
    "compound": "Cc1ccc(-c2cc(-c3ccc(Cl)cc3)nc(/N=C3\\C(=O)N(CN4CCCCC4)c4ccc(Cl)cc43)n2)cc1",
    "tested on": "SN12C renal",
    "result": "62.3 µM"
  },
  {
    "compound": "O=C1CSC2(CC(/C=C/C=C/c3ccccc3)=NN2c2cccc(S(=O)(=O)O)c2)N1c1nc2ccccc2s1 (stereo not given)",
    "tested on": "SN12C renal",
    "result": "> 100 µM"
  },
  {
    "compound": "CCCCCCCCCCCCCCCCOCC(CC(F)(F)P(=O)(O)O)OC(C)=O (stereo not given)",
    "tested on": "SN12C renal",
    "result": "> 50 µM"
  },
  {
    "compound": "O=c1c(Cc2ccc(Cl)cc2)nnc2sc(-c3ccc([N+](=O)[O-])cc3)nn12",
    "tested on": "SN12C renal",
    "result": "> 100 µM"
  },
  {
    "compound": "COc1ccc2c(c1O)[C@@]13C=C(O)C(=O)C=C1[C@@H](C2)N(C)CC3",
    "tested on": "SN12C renal",
    "result": "> 100 µM"
  },
  {
    "compound": "CC(C)OP(=O)(OC(C)C)C(N(C)C)P(=O)(OC(C)C)OC(C)C.[Cl][Sn]([Cl])([Cl])[c]1ccccc1",
    "tested on": "SN12C renal",
    "result": "> 100 µM"
  },
  {
    "compound": "COc1ccc(C2=CC(c3cc(OC)c(OC)c(OC)c3)n3ncnc3N2)cc1 (stereo not given)",
    "tested on": "SN12C renal",
    "result": "> 100 µM"
  },
  {
    "compound": "O=C1OC(c2ccc(O)cc2)(c2ccc(O)cc2)c2cccc3cccc1c23",
    "tested on": "SN12C renal",
    "result": "38.4 µM"
  },
  {
    "compound": "COc1ccc(N2C(=O)C3c4[nH]c5ccc(C)cc5c4C4CCC(C(C)C)CC4C3C2=O)cc1 (stereo not given)",
    "tested on": "SN12C renal",
    "result": "> 100 µM"
  },
  {
    "compound": "COc1cc(C(c2cc3c(cc2O)OCO3)N2CCCC2)cc(OC)c1OC (stereo not given)",
    "tested on": "SN12C renal",
    "result": "45.9 µM"
  },
  {
    "compound": "COc1cc(C(=O)Nc2nnc(S(N)(=O)=O)s2)cc(OC)c1OC",
    "tested on": "SN12C renal",
    "result": "> 100 µM"
  },
  {
    "compound": "CC1=NN(c2ccc(C)cc2)C2(C1)SCC(=O)N2c1nc2ccccc2s1 (stereo not given)",
    "tested on": "SN12C renal",
    "result": "52.2 µM"
  },
  {
    "compound": "CCOC(=O)/C=C1\\Nc2ccccc2C12CCc1c([nH]c3ccccc13)C2C(=O)OCC (stereo not given)",
    "tested on": "SN12C renal",
    "result": "> 100 µM"
  },
  {
    "compound": "CC(CS(=O)(=O)Cc1ccccc1)C(N)=O (stereo not given)",
    "tested on": "SN12C renal",
    "result": "> 100 µM"
  },
  {
    "compound": "O=C(C[C@@H]1NCCC[C@H]1O)Cn1cnc2cc(Br)c(Cl)cc2c1=O",
    "tested on": "SN12C renal",
    "result": "0.0726 µM"
  },
  {
    "compound": "COc1cc2c3c(c1OC)-c1ccccc1C(C(OC(C)=O)c1ccccc1)C3N(C)CC2 (stereo not given)",
    "tested on": "SN12C renal",
    "result": "> 100 µM"
  },
  {
    "compound": "O=C(c1cccs1)N(C(=S)N1CCN(c2ccccc2)CC1)c1ccccc1",
    "tested on": "SN12C renal",
    "result": "> 100 µM"
  },
  {
    "compound": "CC1(CC(=O)O)OC2CCCCCC2O1 (stereo not given) (tested in a mixture with another compound)",
    "tested on": "SN12C renal",
    "result": "> 100 µM"
  },
  {
    "compound": "CCOC(=O)c1[nH]c2c(c1C)-c1[nH]c(=O)c(S(=O)(=O)c3ccccc3)cc1SC2",
    "tested on": "SN12C renal",
    "result": "> 100 µM"
  },
  {
    "compound": "O=C1CCSSCCC(=O)Nc2ccccc2N1",
    "tested on": "SN12C renal",
    "result": "> 100 µM"
  },
  {
    "compound": "N#Cc1c2c(c(N=[N+]=[N-])n3c1nc1ccccc13)CCCC2",
    "tested on": "SN12C renal",
    "result": "4.22 µM"
  },
  {
    "compound": "CC1(C)CC(=O)C(/C=N/c2nc(-c3ccc(Br)cc3)cs2)=C(O)C1",
    "tested on": "SN12C renal",
    "result": "> 100 µM"
  },
  {
    "compound": "S=C(Nc1ccccc1)Nc1[nH]c(=S)sc1-c1nc2ccccc2[nH]1",
    "tested on": "SN12C renal",
    "result": "> 100 µM"
  },
  {
    "compound": "N#Cc1c(N)c(-c2ccc(Cl)cc2)c(F)c2ccccc12",
    "tested on": "SN12C renal",
    "result": "> 100 µM"
  },
  {
    "compound": "CCCCCCCCCCCCCCCCP(=O)(O)OP(=O)(O)OCC1OC(n2ccc(N)nc2=O)C(O)C1O (stereo not given)",
    "tested on": "SN12C renal",
    "result": "> 100 µM"
  },
  {
    "compound": "COc1ccccc1C(=O)c1c(N2CCCCC2)c(=O)c1=O",
    "tested on": "SN12C renal",
    "result": "> 100 µM"
  },
  {
    "compound": "COC(=O)C12CC(C3CC31)C1CC12 (stereo not given)",
    "tested on": "SN12C renal",
    "result": "> 100 µM"
  },
  {
    "compound": "O=C1C/C(=C\\O)C(=O)c2ccccc2N1",
    "tested on": "SN12C renal",
    "result": "> 100 µM"
  },
  {
    "compound": "CC(C)=CC(=O)O[C@@H]1CC(C)(C)CC2C3=CCC4[C@]56CC[C@](O)(OC5)C(C)(C)C6CC[C@@]4(C)C3(C)CC[C@]21C(=O)O (stereo not given in full)",
    "tested on": "SN12C renal",
    "result": "> 100 µM"
  },
  {
    "compound": "O=S1(=O)NNC(=NCc2ccc(F)cc2)c2ccccc21",
    "tested on": "SN12C renal",
    "result": "> 100 µM"
  },
  {
    "compound": "O=c1c2ccccc2nc(-c2ccccc2)n1NCC1(O)OCC(O)C(O)C1O (stereo not given)",
    "tested on": "SN12C renal",
    "result": "> 100 µM"
  },
  {
    "compound": "Cc1nnc2n1N=C(CC(=O)c1ccc(O)cc1O)CN2N",
    "tested on": "SN12C renal",
    "result": "> 100 µM"
  }
]
